- Tested on: melanoma UACC-62
- EXPERIMENT_NOTES: COMPARE screening (NCI human cancer cell line screen), cytotoxicity GI50
- Assay type: cell-based
Entries and their GI50 values follow.
Give a bare numeral; the unit nM is implied.

>>> assay_value("O=C1c2ccccc2-c2c1c1ccc([N+](=O)[O-])cc1c(=O)n2CCCN1CCOCC1")
380

If you can, please state the reported GI50 value of "COc1cc2c(=O)n(CCCN3CCOCC3)c3c(c2cc1O)C(=O)c1cc2c(cc1-3)OCO2" . 300

Field entry: O=C(O)C(F)(F)F.O=C(O)C(F)(F)F.O=C1c2ccccc2-c2c1c1ccccc1c(=O)n2CCCNCCCCNCCCn1c2c(c3ccccc3c1=O)C(=O)c1ccccc1-2 [Compound 14h] 562

Next entry: "COc1cc2c3c(n(CCCN4CCN(CCO)CC4)c(=O)c2cc1OC)-c1cc2c(cc1C3=O)OCO2" 1230

Likewise for "COc1cc2c3c(n(CCN4CCOCC4)c(=O)c2cc1OC)-c1ccccc1C3=O" ? 56200

How about COc1cc2c3c(n(CCCN4CCCNCC4)c(=O)c2cc1OC)-c1cc2c(cc1C3=O)OCO2.Cl.Cl [Compound 5v, Dihydrochloride] ? 457

# iterate: "CC(C)(C)OC(=O)NCCCCCCCCCCCn1c2c(c3ccccc3c1=O)C(=O)c1ccccc1-2" 24000

How about this molecule: "Cl.NCCCn1c2c(c3ccccc3c1=O)C(=O)c1ccccc1-2" 260
